- test protocol: collision cross section of modified peptide (TIMS, N2, iRT-aligned); higher = larger / more extended gas-phase ion
- reported conditions: charge state: 2; modification: Citrullination (R)
Outcome label depends on collision cross section relative to 400 Å²: at/above gives T, below gives F.

> print(dat)
                            sequence.content  class
 1  GSGLGARGSSYGVTSTESYK [_GSGLGAR(Citrullination (R))GSSYGVTSTESYK_]      T
 2  GGSGGRGVSVSSAR [_GGSGGR(Citrullination (R))GVSVSSAR_]      F
 3  GRGAAAAGGPQR [_GR(Citrullination (R))GAAAAGGPQR_]      F
 4  GGGDRGGFGPGK [_GGGDR(Citrullination (R))GGFGPGK_]      F
 5  GRGLPGPAESLR [_GR(Citrullination (R))GLPGPAESLR_]      F
 6  GRGYFEHR [_GR(Citrullination (R))GYFEHR_]      F
 7  SGATAGAAGGRGK [_SGATAGAAGGR(Citrullination (R))GK_]      F
 8  LVLPSQAQARLPSGEVVK [_LVLPSQAQAR(Citrullination (R))LPSGEVVK_]      T
 9  GGGGGGGGGAPRGR [_GGGGGGGGGAPR(Citrullination (R))GR_]      F
10  PGGLGSSSLYGLGASRPR [_PGGLGSSSLYGLGASR(Citrullination (R))PR_]      T
11  GGGYGGDRGGYGGDR [_GGGYGGDR(Citrullination (R))GGYGGDR_]      F
12  GVPRGVHLGSQGLQR [_GVPR(Citrullination (R))GVHLGSQGLQR_]      T
13  AQPQDSRGGSK [_AQPQDSR(Citrullination (R))GGSK_]      F
14  PRLPATGTFK [_PR(Citrullination (R))LPATGTFK_]      F

###

- test protocol: collision cross section of unmodified peptide (TIMS, N2, iRT-aligned); higher = larger / more extended gas-phase ion
- reported conditions: charge state: 2
Outcome label depends on collision cross section relative to 400 Å²: at/above gives true (1), below gives false (0).

> print(dat)
               substance      class
 1               APEYLHR  false (0)
 2            TPNLYIYSKK  false (0)
 3           TVQGPPGEPGR  false (0)
 4            VELCSFSGYK  false (0)
 5           GGGFGAHGRGR  false (0)
 6               PGLQGPR  false (0)
 7          GEKGDPGLIGPK  false (0)
 8             GSRGFPGEK  false (0)
 9               GEYFGEK  false (0)
10      VLTANSNPSSPSAAKR   true (1)
11       PSVGSQSNQAGQGKR   true (1)
12           GERGPPGPPGK  false (0)
13            YLHDESGLNR  false (0)
14    GRGVGSPEPGPTAPYLGR   true (1)
15           CQGGQETQEYR  false (0)
16      GTGRGGGGGGGGGAPR  false (0)
17       DLSTVEALQNLKNLK   true (1)
18          GGGDRGGFGPGK  false (0)
19       GFCFITYTDEEPVKK   true (1)
20         VTLEVGKVIQQGR   true (1)
21             DYNVTANSK  false (0)
22            VLSIGDGIAR  false (0)
23             DLEEAEEYK  false (0)
24           VDGDTQTTVEK  false (0)
25           AAGQPYEQHAK  false (0)
26             GVQYLNEIK  false (0)
27     IINEPTAAAIAYGLDKK   true (1)
28            TEVNSGFFYK  false (0)
29           GEPGLPGHPGK  false (0)
30    LGNTISSLFGGGTTPDAK   true (1)
31           AQPQDSRGGSK  false (0)
32  GHPGPPGPPGEQGLPGLAGK   true (1)
33     GAPGGRGAQLSVPSPAR   true (1)
34         LPEYPQVDDLLLR   true (1)
35             TTEETSKPK  false (0)
36             GDPGLIGPK  false (0)
37       GGGYGGDRGGYGGDR  false (0)
38             DVFISAAER  false (0)
39         VFIGNLNTLVVKK   true (1)
40          GPKGQQGEPGPK  false (0)
41        DAIHFYNKSLAEHR   true (1)
42        VPTTEKPTVTVNFR   true (1)
43        ISSNFSSIIAEKLR   true (1)
44       AAQASDLEKIHLDEK   true (1)
45            LDEKENLSAK  false (0)
46  GSGLGARGSSYGVTSTESYK   true (1)
47            STCTYVGAAK  false (0)
48            KFGVLSDNFK  false (0)
49      LGVPGLPGYPGRQGPK   true (1)
50            VIVGGSSEYK  false (0)
51            DLYEPSHGAK  false (0)
52          SGGRGVSVSSAR  false (0)
53     FPGVGVLPGVPTGAGVK   true (1)
54         VFLDCCNYITELR   true (1)
55       FNALFAQGNYSEAAK   true (1)
56            FYTEDSPGLK  false (0)
57           ALYETELADAR  false (0)
58        FLQEFYQDDELGKK   true (1)
59           AGRGFSLEELR  false (0)
60            IQQELQTAKK  false (0)
61         FLQEFYQDDELGK   true (1)
62          VPQAQPTKPALK  false (0)
63        ESISVSSEQLAQFR   true (1)
64          AQPSASLGVGYR  false (0)

###

- test protocol: collision cross section of modified peptide (TIMS, N2, iRT-aligned); higher = larger / more extended gas-phase ion
- reported conditions: charge state: 2; modification: Butyryl
Recorded collision cross section by entry
outcome measure: collision cross section (Å²)

> print(dat)
                            sequence.content          outcome.measure  observed.value
 1  STGLELETPSLVPVKK [_STGLELETPSLVPVK(Butyryl)K_]  collision cross section          438.73
 2  SGKFTQQDIDEAK [_SGK(Butyryl)FTQQDIDEAK_]  collision cross section          419.52
 3  ITESVAETAQTIKK [_ITESVAETAQTIK(Butyryl)K_]  collision cross section           425.5
 4  IINEPTAAAIAYGLDKK [_IINEPTAAAIAYGLDK(Butyryl)K_]  collision cross section          465.29
 5        LEQVEKELLR [_LEQVEK(Butyryl)ELLR_]  collision cross section          391.61
 6  DAIHFYNKSLAEHR [_DAIHFYNK(Butyryl)SLAEHR_]  collision cross section           452.1
 7  DASTLQSQKAEGTGDAK [_DASTLQSQK(Butyryl)AEGTGDAK_]  collision cross section          440.14
 8  SGNLTEDDKHNNAK [_SGNLTEDDK(Butyryl)HNNAK_]  collision cross section          425.09
 9    ASAISIKLGSSK [_ASAISIK(Butyryl)LGSSK_]  collision cross section          375.24
10        IQQELQTAKK [_IQQELQTAK(Butyryl)K_]  collision cross section          385.32
11    FDDTNPEKEEAK [_FDDTNPEK(Butyryl)EEAK_]  collision cross section          399.47
12        ASEALLKQLK [_ASEALLK(Butyryl)QLK_]  collision cross section          379.45
13  PASGAGAGAGAGKR [_PASGAGAGAGAGK(Butyryl)R_]  collision cross section          358.98
14    IISSIEQKEENK [_IISSIEQK(Butyryl)EENK_]  collision cross section          408.13
15    SKLLFSNTAAQK [_SK(Butyryl)LLFSNTAAQK_]  collision cross section           402.3
16        LDEKENLSAK [_LDEK(Butyryl)ENLSAK_]  collision cross section          370.93
17  VGIDTPDIDIHGPEGKLK [_VGIDTPDIDIHGPEGK(Butyryl)LK_]  collision cross section           496.6
18  DLGKFQVATDALK [_DLGK(Butyryl)FQVATDALK_]  collision cross section           411.4
19  TTGFYSGFSEVAEKR [_TTGFYSGFSEVAEK(Butyryl)R_]  collision cross section          442.26
20  ISSNFSSIIAEKLR [_ISSNFSSIIAEK(Butyryl)LR_]  collision cross section          436.86
21  ANEKTESSSAQQVAVSR [_ANEK(Butyryl)TESSSAQQVAVSR_]  collision cross section          441.41
22        LGNDFHTNKR [_LGNDFHTNK(Butyryl)R_]  collision cross section          377.65
23  VDIDVPDVNIEGPDAKLK [_VDIDVPDVNIEGPDAK(Butyryl)LK_]  collision cross section          488.42
24  SITHSTVGSKGEK [_SITHSTVGSK(Butyryl)GEK_]  collision cross section           396.1
25  VNVEAPDVNLEGLGGKLK [_VNVEAPDVNLEGLGGK(Butyryl)LK_]  collision cross section          466.95
26  LFVGGIKEDTEEHHLR [_LFVGGIK(Butyryl)EDTEEHHLR_]  collision cross section          500.41
27    LLFSNTAAQKLR [_LLFSNTAAQK(Butyryl)LR_]  collision cross section           405.4
28  VTLEVGKVIQQGR [_VTLEVGK(Butyryl)VIQQGR_]  collision cross section          412.79
29      ITGKNQVTATK [_ITGK(Butyryl)NQVTATK_]  collision cross section          370.52
30  DESFLGKLGGTLAR [_DESFLGK(Butyryl)LGGTLAR_]  collision cross section          417.73
31  GGPGSTLSFVGKR [_GGPGSTLSFVGK(Butyryl)R_]  collision cross section          388.34
32  ASDTSSETVFGKR [_ASDTSSETVFGK(Butyryl)R_]  collision cross section          403.53
33      GAEKTEVAEPR [_GAEK(Butyryl)TEVAEPR_]  collision cross section          380.97
34  DSSPTTNSKLSALQR [_DSSPTTNSK(Butyryl)LSALQR_]  collision cross section          435.34
35  DYSSGFGGKYGVQADR [_DYSSGFGGK(Butyryl)YGVQADR_]  collision cross section          438.71
36          TTEETSKPK [_TTEETSK(Butyryl)PK_]  collision cross section           338.9
37      VETTVTSLKTK [_VETTVTSLK(Butyryl)TK_]  collision cross section          389.24
38      GSLEKGSPEDK [_GSLEK(Butyryl)GSPEDK_]  collision cross section          371.66
39  SSGPGGQNVNKVNSK [_SSGPGGQNVNK(Butyryl)VNSK_]  collision cross section          405.84
40  DDSFLGKLGGTLAR [_DDSFLGK(Butyryl)LGGTLAR_]  collision cross section          417.41
41      DFDTALKHYDK [_DFDTALK(Butyryl)HYDK_]  collision cross section          408.66
42    LEEVTGKLQVAR [_LEEVTGK(Butyryl)LQVAR_]  collision cross section          398.95
43    VFSIISSEKELK [_VFSIISSEK(Butyryl)ELK_]  collision cross section          413.27
